- system.name: ACAT1 C196 (P24752) (Homo sapiens)
- Sequence (P24752 34-427): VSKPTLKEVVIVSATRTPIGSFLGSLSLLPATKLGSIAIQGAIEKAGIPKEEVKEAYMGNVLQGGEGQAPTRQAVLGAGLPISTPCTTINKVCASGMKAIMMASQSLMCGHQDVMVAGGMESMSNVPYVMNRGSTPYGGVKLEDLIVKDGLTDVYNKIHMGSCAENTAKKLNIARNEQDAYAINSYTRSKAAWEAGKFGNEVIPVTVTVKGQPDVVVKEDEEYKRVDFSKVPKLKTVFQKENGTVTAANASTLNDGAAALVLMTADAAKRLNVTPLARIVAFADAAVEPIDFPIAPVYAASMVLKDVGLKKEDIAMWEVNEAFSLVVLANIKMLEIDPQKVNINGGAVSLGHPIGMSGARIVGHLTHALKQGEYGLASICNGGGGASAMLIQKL
- protocol: Competitive isoTOP-ABPP, cell lysates
- Type: binding
- conditions: 500 μm, in-vitro_ramos_231
endpoint: isoTOP-ABPP reactivity profile ratio, P24752_C196

molecule | system.name | reading
CC1CCc2ccccc2N1C(=O)CCl (centres unmarked) [compound 45] | ACAT1 C196 (P24752) (Homo sapiens) | 20.0
O=C(CCl)Nc1ccc(-c2ccccc2)cc1 [compound 52] | ACAT1 C196 (P24752) (Homo sapiens) | 1.3
C=CC(=O)N1CCC(Cc2ccccc2)CC1 [compound 53] | ACAT1 C196 (P24752) (Homo sapiens) | 1.2
C=CC(=O)N(c1ccccc1)C1CCCCC1 [compound 46] | ACAT1 C196 (P24752) (Homo sapiens) | 0.9
O=C(CCl)Nc1cccc2ncccc12 [compound 51] | ACAT1 C196 (P24752) (Homo sapiens) | 1.1
Cc1ncc(CO)c(CNC(=O)CCl)c1O [compound 54] | ACAT1 C196 (P24752) (Homo sapiens) | 1.1
COc1cc(NC(=O)CCl)cc(OC)c1 [compound 43] | ACAT1 C196 (P24752) (Homo sapiens) | 2.4
CCCN(C(=O)CCl)c1c(N)n(CCC)c(=O)[nH]c1=O [compound 55] | ACAT1 C196 (P24752) (Homo sapiens) | 1.0
Cc1ccc(C(F)(F)F)cc1NC(=O)CCl [compound 49] | ACAT1 C196 (P24752) (Homo sapiens) | 4.7
O=C(CCl)N1CCc2cc(Br)ccc21 [compound 50] | ACAT1 C196 (P24752) (Homo sapiens) | 3.9
O=C(CCl)NC1C(O)OC(CO)C(O)C1O (mixture of isomers) [compound 44] | ACAT1 C196 (P24752) (Homo sapiens) | 0.8

====

Here the recorded isoTOP-ABPP ratio P11216_C326 is given for each entry.
- system.name: cysteines in MDA-MB-231 and Ramos cells (Homo sapiens)
- protocol: Competitive isoTOP-ABPP in situ (fragment-treated cells)
- Type: cell-based
- conditions: 200 μM, insitu, 231

smiles.record | isoTOP-ABPP ratio P11216_C326
C=CC(=O)N(Cc1cccnc1)c1cc(C(F)(F)F)cc(C(F)(F)F)c1 | 0.5
C=CC(=O)Nc1cc(F)c(N2CCN(C(=O)OC(C)(C)C)CC2)c(F)c1 | 1.2
O=C(CCl)Nc1cccc2ncccc12 | 0.8
O=C(CCl)NC(=O)NC12CC3CC(CC(C3)C1)C2 | 3.9
CC(C)CCOCCNC(=O)CCl | 0.7

====

- system.name: cysteines in MDA-MB-231 and Ramos cells (Homo sapiens, UniProt Q14997)
- Sequence (Q14997 whole entry, the tested form may be a part): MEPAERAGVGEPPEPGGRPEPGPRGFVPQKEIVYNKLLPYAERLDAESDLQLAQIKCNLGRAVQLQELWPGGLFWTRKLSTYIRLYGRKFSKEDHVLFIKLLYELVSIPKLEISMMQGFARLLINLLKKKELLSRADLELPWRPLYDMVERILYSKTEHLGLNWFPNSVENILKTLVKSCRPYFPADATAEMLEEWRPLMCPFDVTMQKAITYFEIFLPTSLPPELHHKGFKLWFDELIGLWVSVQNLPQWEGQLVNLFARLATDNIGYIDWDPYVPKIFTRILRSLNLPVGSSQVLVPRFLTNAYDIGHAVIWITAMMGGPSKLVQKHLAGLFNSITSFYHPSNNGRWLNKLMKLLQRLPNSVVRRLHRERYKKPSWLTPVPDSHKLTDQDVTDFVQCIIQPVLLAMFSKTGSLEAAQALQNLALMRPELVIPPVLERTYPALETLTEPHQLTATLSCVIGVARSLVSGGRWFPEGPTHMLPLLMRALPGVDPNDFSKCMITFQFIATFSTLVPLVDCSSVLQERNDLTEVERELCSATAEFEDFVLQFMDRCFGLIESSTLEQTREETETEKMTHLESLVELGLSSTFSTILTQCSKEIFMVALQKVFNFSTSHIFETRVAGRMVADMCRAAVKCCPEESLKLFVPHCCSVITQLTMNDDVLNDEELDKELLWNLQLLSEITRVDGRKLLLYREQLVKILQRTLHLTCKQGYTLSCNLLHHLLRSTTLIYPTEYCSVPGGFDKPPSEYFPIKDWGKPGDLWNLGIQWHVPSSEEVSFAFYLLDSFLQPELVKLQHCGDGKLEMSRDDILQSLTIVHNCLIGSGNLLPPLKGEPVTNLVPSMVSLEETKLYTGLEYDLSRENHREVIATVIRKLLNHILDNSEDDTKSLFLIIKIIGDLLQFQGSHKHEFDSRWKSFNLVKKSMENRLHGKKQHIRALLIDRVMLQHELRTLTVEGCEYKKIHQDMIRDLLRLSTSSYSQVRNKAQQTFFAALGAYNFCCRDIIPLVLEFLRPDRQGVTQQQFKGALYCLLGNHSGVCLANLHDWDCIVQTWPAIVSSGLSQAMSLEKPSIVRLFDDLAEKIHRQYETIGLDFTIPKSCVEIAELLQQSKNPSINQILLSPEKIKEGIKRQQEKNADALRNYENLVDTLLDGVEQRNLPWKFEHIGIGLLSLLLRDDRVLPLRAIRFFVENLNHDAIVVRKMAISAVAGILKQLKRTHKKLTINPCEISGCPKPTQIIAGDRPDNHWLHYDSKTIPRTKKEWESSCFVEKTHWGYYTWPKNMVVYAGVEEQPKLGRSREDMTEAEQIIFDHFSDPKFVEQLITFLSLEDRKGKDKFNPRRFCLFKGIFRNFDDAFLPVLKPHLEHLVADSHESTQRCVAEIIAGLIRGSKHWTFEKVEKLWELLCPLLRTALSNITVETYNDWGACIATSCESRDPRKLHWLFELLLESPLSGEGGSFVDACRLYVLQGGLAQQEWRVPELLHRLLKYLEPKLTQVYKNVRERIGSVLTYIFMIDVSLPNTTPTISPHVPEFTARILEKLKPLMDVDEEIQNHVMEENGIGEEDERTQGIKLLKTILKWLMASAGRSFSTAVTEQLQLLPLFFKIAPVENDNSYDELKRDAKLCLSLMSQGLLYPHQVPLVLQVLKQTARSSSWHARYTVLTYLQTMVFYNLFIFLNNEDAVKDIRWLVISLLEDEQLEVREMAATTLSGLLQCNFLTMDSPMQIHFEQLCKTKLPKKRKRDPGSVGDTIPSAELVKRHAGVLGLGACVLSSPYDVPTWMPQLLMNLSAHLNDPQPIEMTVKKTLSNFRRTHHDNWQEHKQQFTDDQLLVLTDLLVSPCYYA
- protocol: Competitive isoTOP-ABPP in situ (fragment-treated cells)
- Type: cell-based
- conditions: 200 μM, insitu, 231
Listed next: entries and their corresponding isoTOP-ABPP ratio Q14997_C1840.

smiles.record | isoTOP-ABPP ratio Q14997_C1840
Cc1ccc(C=C(C#N)C(=O)NCCN2CCOCC2)cc1 | 0.9
O=C(CCl)NCCc1c[nH]c2ccccc12 | 0.9
O=C(CCl)Nc1cccc2ncccc12 | 20.0
O=C(CCl)N1CCN(S(=O)(=O)c2ccccc2F)CC1 | 20.0
COc1ccccc1OCCNC(=O)CCl | 0.9
O=C(CCl)NC12CC3CC(CC(C3)C1)C2 | 1.0
CC(C)CCOCCNC(=O)CCl | 20.0
C=CC(=O)Nc1cc(F)c(N2CCN(C(=O)OC(C)(C)C)CC2)c(F)c1 | 20.0
O=C(CCl)NC(=O)NC12CC3CC(CC(C3)C1)C2 | 20.0
